# TEST_SYSTEM: human sulfite oxidase (HSO, human SO) (Homo sapiens, UniProt P51687, R529Q)
# Sequence (P51687 80-545 R529Q): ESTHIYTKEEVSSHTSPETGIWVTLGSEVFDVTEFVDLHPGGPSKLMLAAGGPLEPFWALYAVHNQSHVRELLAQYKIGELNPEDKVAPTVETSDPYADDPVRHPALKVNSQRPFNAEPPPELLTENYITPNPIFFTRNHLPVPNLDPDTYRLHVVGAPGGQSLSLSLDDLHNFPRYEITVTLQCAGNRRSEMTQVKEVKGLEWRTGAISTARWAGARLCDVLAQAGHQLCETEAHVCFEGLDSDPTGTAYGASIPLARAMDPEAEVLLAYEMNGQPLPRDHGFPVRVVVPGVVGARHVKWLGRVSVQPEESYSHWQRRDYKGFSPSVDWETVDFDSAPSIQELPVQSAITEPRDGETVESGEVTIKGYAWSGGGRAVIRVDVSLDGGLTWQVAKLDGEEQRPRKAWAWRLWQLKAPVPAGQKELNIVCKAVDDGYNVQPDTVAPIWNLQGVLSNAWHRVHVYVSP
# RUN_DESCRIPTION: stopped-flow heme reduction
# MEASUREMENT_CONTEXT: read-out: Kd^sulfite; pH 8.5, 25 °C, anaerobic, no cyt c
REPORTED_PROPERTY: Kd (µM)
Answers are plain numbers, in µM.

Request: What value of Kd has been reported for the following compound? O=S(O)O [sulfite]
Response: 227

----------
Target chain: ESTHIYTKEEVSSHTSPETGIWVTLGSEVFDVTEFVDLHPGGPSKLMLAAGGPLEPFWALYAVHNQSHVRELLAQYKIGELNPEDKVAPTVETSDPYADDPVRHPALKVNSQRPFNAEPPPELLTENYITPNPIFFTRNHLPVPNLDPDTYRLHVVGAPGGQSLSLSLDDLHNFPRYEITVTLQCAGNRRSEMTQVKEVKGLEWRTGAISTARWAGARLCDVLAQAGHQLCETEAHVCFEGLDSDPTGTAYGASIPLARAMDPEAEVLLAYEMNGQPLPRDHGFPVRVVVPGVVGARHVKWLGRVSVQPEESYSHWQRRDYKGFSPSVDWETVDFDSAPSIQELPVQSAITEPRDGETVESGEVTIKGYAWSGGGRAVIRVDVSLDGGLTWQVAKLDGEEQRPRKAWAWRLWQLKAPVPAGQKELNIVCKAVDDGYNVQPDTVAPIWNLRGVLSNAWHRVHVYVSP
REPORTED_PROPERTY: Kd (µM)
Answers are plain numbers, in µM.

Request: What value of Kd has been reported for the following compound? "O=S(O)O"
Response: 6.72

----------
# TEST_SYSTEM: human sulfite oxidase (HSO, human SO) (Homo sapiens, UniProt P51687, R529M)
# Sequence (P51687 80-545 R529M): as the sequence (P51687 80-545 R529Q) above, with Q450M counted along it
# RUN_DESCRIPTION: stopped-flow heme reduction
# MEASUREMENT_CONTEXT: read-out: Kd^sulfite; pH 8.5, 25 °C, anaerobic, no cyt c
REPORTED_PROPERTY: Kd (µM)
Give bare numbers, in µM.

Request: What value of Kd has been reported for the following compound? "O=S(O)O"
Response: 73.4
